B1: RAB40B (parent)
chain: YSLTTSSTHKRSSLRKVKLVRPPQ

- Variants of: B1
- ASSAY PROCEDURE: protein stability index of a GFP-peptide fusion (GPS, HEK-293T) (PSI 1-6); higher = more stable;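 further: lentivirally expressed fusions sorted by FACS into six bins by GFP to DsRed ratio, PSI derived from sequencing read proportions per bin multiplied by bin number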
- REPORTED CONDITIONS: c terminus: a fixed tail appended
Criterion: protein stability index meeting or surpassing 3. Met: True. Not met: False.

{"MUTANT": "S2C", "ANSWER LABEL": "False"}
{"MUTANT": "T4I", "ANSWER LABEL": "False"}
{"MUTANT": "K18R", "ANSWER LABEL": "False"}
{"MUTANT": "L19F", "ANSWER LABEL": "True"}
{"MUTANT": "P22A", "ANSWER LABEL": "False"}
{"MUTANT": "Q24S", "ANSWER LABEL": "False"}
{"MUTANT": "P22S", "ANSWER LABEL": "True"}
{"MUTANT": "L19M", "ANSWER LABEL": "True"}
{"MUTANT": "H9Q", "ANSWER LABEL": "True"}
{"MUTANT": "Q24P", "ANSWER LABEL": "True"}
{"MUTANT": "R11H", "ANSWER LABEL": "True"}
{"MUTANT": "T4N", "ANSWER LABEL": "True"}
{"MUTANT": "L14W", "ANSWER LABEL": "False"}
{"MUTANT": "L3G", "ANSWER LABEL": "True"}
{"MUTANT": "H9W", "ANSWER LABEL": "False"}
{"MUTANT": "Y1R", "ANSWER LABEL": "True"}
{"MUTANT": "S7Q", "ANSWER LABEL": "False"}
{"MUTANT": "K18D", "ANSWER LABEL": "True"}
{"MUTANT": "P23Y", "ANSWER LABEL": "True"}
{"MUTANT": "R11C", "ANSWER LABEL": "False"}
{"MUTANT": "P22W", "ANSWER LABEL": "False"}
